Entry source: paper PMC9490041

- target: PSG G322A (PSD-95)
- assay.notes: FP displacement (competition) of FITC-15 AA CRIPT by library peptide, IC50 and Ki
- measurement.parameters: read-out: IC50 (µM), PSG G322A; FP displacement of FITC-15 AA CRIPT probe by PSD library peptide; protein PSG G322A
Ends that are not written are not given here.
experimental.endpoint: IC50 (µM)
Answers are plain numbers, in µM.

Previously resolved entries follow.
>  <substance>
Ac-YEKAASREEPIEWEF [CUX1]

>  <reported.measurement>
1560

$$$$
>  <substance>
Ac-YERAANREEALEWEF [CUX2]

>  <reported.measurement>
701

$$$$
>  <substance>
Ac-YVMQDESFPASKIEL [MAP1B]

>  <reported.measurement>
914

$$$$

Problem: Item Ac-YEPPEPKKSRRSVLL [CDC42] with PSG G322A (PSD-95) - IC50?
Result: 952
